Source: patent US10669272B2

target: human DGKζ (Homo sapiens); construct: TVMV protease cleavage site (C); Hexa-His (C); made in house; host or cells: Sf9 insect cells (baculovirus, Bac-to-Bac); assay: DGKζ LIPGLO assay (extruded liposome substrate), in vitro DGK inhibition; type: biochemical; details: liposome (LIPGLO) assay; read-out: DGKz LIPGLO IC50
Sequence (Q13574 with tags, fused parts or gaps isoform Q13574-4): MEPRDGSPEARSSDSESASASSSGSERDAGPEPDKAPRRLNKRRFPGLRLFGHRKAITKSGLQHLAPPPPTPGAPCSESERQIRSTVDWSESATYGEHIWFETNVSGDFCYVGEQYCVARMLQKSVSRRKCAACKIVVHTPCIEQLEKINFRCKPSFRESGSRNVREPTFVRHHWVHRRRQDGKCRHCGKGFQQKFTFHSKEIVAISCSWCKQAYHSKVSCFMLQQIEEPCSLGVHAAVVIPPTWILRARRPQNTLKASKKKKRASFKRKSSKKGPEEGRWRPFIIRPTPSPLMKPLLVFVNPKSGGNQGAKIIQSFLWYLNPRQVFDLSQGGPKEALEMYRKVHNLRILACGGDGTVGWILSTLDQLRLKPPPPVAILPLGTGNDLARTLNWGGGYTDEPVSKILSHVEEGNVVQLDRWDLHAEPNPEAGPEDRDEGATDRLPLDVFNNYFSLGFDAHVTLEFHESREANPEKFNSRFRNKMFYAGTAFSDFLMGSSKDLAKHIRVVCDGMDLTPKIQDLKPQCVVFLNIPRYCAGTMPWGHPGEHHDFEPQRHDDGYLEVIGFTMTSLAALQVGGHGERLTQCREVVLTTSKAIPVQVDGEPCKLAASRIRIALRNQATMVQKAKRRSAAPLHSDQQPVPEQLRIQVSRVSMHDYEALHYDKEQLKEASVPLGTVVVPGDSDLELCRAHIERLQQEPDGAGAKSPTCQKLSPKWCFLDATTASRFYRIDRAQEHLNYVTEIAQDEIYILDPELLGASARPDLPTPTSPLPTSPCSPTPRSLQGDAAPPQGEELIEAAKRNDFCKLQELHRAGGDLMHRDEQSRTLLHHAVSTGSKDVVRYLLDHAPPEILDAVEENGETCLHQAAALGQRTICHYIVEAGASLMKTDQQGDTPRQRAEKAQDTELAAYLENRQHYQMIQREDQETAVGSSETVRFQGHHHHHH
REPORTED PROPERTY: IC50 (nM)
Give a bare numeral; the unit nM is implied.

Consider the reported IC50 for these molecules:
CC(c1ccc(OC(F)F)cc1)N1C[C@H](C)N(c2c(C#N)c(=O)n(C)c3ccc(C#N)nc23)C[C@H]1C (single isomer, unassigned) [Example 1376]; 17000
Cc1ccc(C(c2cccc(F)n2)N2C[C@H](C)N(c3cc(=O)n(C)c4ccc(C#N)nc34)C[C@H]2C)cc1 (single isomer, unassigned) [Example 478]; 2400
CC[C@H]1CN(C(c2ccc(F)cc2)c2cccc(C(F)(F)F)n2)[C@H](C)CN1c1cc(=O)n(C)c2ccc(C#N)nc12 (single isomer, unassigned) [Example 1134]; 130

Ask | Requested field: IC50. Item: CC[C@H]1CN(C(c2ccc(F)cc2)c2cccc(C(F)(F)F)n2)[C@H](CC)CN1c1cc(=O)n(C)c2ccc(C#N)nc12 (single isomer, unassigned) [Example 1045]
Reply | 120

Ask | Next: CCc1ccccc1C(c1ccc(F)cc1)N1C[C@H](C)N(c2cc(=O)n(C)c3ccc(OC)nc23)C[C@H]1C (single isomer, unassigned) [Example 235]
Reply | 4800

Ask | Next up: COC[C@@H]1CN(c2cc(=O)n(C)c3ccc(C#N)nc23)[C@@H](C)CN1C(c1ccc(F)cc1)c1ccc(C(F)(F)F)cn1 (stereo partly drawn) [Example 1402]
Reply | 100
